Data credit: the supplement of paper PMC11061612

- System: HDLM-2 (Hodgkin's Lymphoma)
- test.method.notes: combination Emax (second highest fraction inhibited in the dose matrix, 72 h); higher = more inhibition; extreme values may be limits of the assay
Please provide measured combination Emax for the entries that follow.

{"compound": "Cc1c2c(nn1C)CSCc1cc(n(C)n1)CSc1cc(c3ccccc3c1)OCCCc1c(C(=O)O)n(C)c3c-2c(Cl)ccc13 [AZD5991] + Cc1cc2ncnn2cc1Nc1ncc2c(n1)n(C1CCOCC1)c(=O)n2C [AZD7648] (first compound max 1 µM, 7x7, partner max 10 µM)", "combination Emax": 0.996}
{"compound": "COc1cccc(OCCCN)c1-c1cc(Nc2cnc(C#N)cn2)n[nH]1 [Prexasertib] + CCc1c2c(nc3ccc(O)cc13)-c1cc3c(c(=O)n1C2)COC(=O)[C@]3(O)CC [SN-38] (first compound max 1 µM, 7x7, partner max 0.3 µM)", "combination Emax": 0.676}
{"compound": "COc1nnc2ccc(N3CCC(c4ccc(OCCN5CCN(C)C(=O)[C@H]5C)cc4)CC3)nn12 [AZD5153] + Cc1c2c(nn1C)CSCc1cc(n(C)n1)CSc1cc(c3ccccc3c1)OCCCc1c(C(=O)O)n(C)c3c-2c(Cl)ccc13 [AZD5991] (first compound max 1 µM, 7x7, partner max 1 µM)", "combination Emax": 0.987}

Data request: Which combination Emax value is on record for N#Cc1cnc(Nc2cc(NC[C@H]3CNCCO3)c(C(F)(F)F)cn2)cn1 [SRA737] + Nc1ccn([C@@H]2O[C@H](CO)[C@@H](O)C2(F)F)c(=O)n1 [Gemcitabine] (first compound max 10 µM, 7x7, partner max 0.3 µM) ?
Data returned: 0.854

* * *

- Test system: Hs-633T (Other Solid Carcinomas)
- test.method.notes: combination Emax (second highest fraction inhibited in the dose matrix, 72 h); higher = more inhibition; extreme values may be limits of the assay
Short version: combination Emax at least 0.5 is 1.0, less is 0.0.

Data request: Does the reported combination Emax for C=CCn1c(=O)c2cnc(Nc3ccc(N4CCN(C)CC4)cc3)nc2n1-c1cccc(C(C)(C)O)n1 [AZD1775] + C[C@@H]1COCCN1C2=NC(=NC(=C2)C3(CC3)[S@](=N)(=O)C)C4=C5C=CNC5=NC=C4 [AZD6738] (first compound max 1 µM, partner max 10 µM) fall at or above the 0.5 mark?
Data returned: 1.0

Data request: Please check the record COc1cccc(OCCCN)c1-c1cc(Nc2cnc(C#N)cn2)n[nH]1 [Prexasertib] + C=CCn1c(=O)c2cnc(Nc3ccc(N4CCN(C)CC4)cc3)nc2n1-c1cccc(C(C)(C)O)n1 [AZD1775] (first compound max 1 µM, partner max 1 µM) and state if its combination Emax is at or above 0.5.
Data returned: 1.0

* * *

- System: MDA-MB-468 (Breast Carcinoma)
- test.method.notes: combination Emax (second highest fraction inhibited in the dose matrix, 72 h); higher = more inhibition; extreme values may be limits of the assay
Could you please report measured combination Emax for the items listed next?
Answers are plain numbers.

Record excerpt, results attached:
{"molecule": "Cc1c2c(nn1C)CSCc1cc(n(C)n1)CSc1cc(c3ccccc3c1)OCCCc1c(C(=O)O)n(C)c3c-2c(Cl)ccc13 [AZD5991] + Nc1ccn([C@@H]2O[C@H](CO)[C@@H](O)C2(F)F)c(=O)n1 [Gemcitabine] (first compound max 1 µM, 7x7, partner max 0.3 µM)", "combination Emax": 0.707}
{"molecule": "CC1(C)CCC(CN2CCN(c3ccc(C(=O)NS(=O)(=O)c4ccc(NCC5CCOCC5)c([N+](=O)[O-])c4)c(Oc4cnc5[nH]ccc5c4)c3)CC2)=C(c2ccc(Cl)cc2)C1 [Venetoclax] + C1CN(CCC1(C(=O)N[C@@H](CCO)C2=CC=C(C=C2)Cl)N)C3=NC=NC4=C3C=CN4 [Capivasertib] (first compound max 1 µM, 7x7, partner max 3 µM)", "combination Emax": 0.511}
{"molecule": "CN(CCO)CC[C@H](CSc1ccccc1)Nc1ccc(S(=O)(=O)NC(=O)c2ccc(N3CCC([C@@H](O)c4ccccc4-c4ccc(Cl)cc4)CC3)cc2)cc1S(=O)(=O)C(F)(F)F [AZD4320] + CCN(CCO)CCCOc1ccc2c(Nc3cc(CC(=O)Nc4cccc(F)c4)[nH]n3)ncnc2c1 [AZD2811] (first compound max 1 µM, 7x7, partner max 1 µM)", "combination Emax": 0.885}
{"molecule": "Cc1cc2ncnn2cc1Nc1ncc2c(n1)n(C1CCOCC1)c(=O)n2C [AZD7648] + C=CCn1c(=O)c2cnc(Nc3ccc(N4CCN(C)CC4)cc3)nc2n1-c1cccc(C(C)(C)O)n1 [AZD1775] (first compound max 10 µM, partner max 1 µM)", "combination Emax": 0.526}
{"molecule": "CC1(C)CCC(CN2CCN(c3ccc(C(=O)NS(=O)(=O)c4ccc(NCC5CCOCC5)c([N+](=O)[O-])c4)c(Oc4cnc5[nH]ccc5c4)c3)CC2)=C(c2ccc(Cl)cc2)C1 [Venetoclax] + CCN(CCO)CCCOc1ccc2c(Nc3cc(CC(=O)Nc4cccc(F)c4)[nH]n3)ncnc2c1 [AZD2811] (first compound max 1 µM, 7x7, partner max 1 µM)", "combination Emax": 0.624}
{"molecule": "Cc1c2c(nn1C)CSCc1cc(n(C)n1)CSc1cc(c3ccccc3c1)OCCCc1c(C(=O)O)n(C)c3c-2c(Cl)ccc13 [AZD5991] + Cc1cc2ncnn2cc1Nc1ncc2c(n1)n(C1CCOCC1)c(=O)n2C [AZD7648] (first compound max 1 µM, 7x7, partner max 10 µM)", "combination Emax": 0.462}
{"molecule": "C=CCn1c(=O)c2cnc(Nc3ccc(N4CCN(C)CC4)cc3)nc2n1-c1cccc(C(C)(C)O)n1 [AZD1775] + Nc1ccn([C@@H]2O[C@H](CO)[C@@H](O)C2(F)F)c(=O)n1 [Gemcitabine] (first compound max 1 µM, partner max 0.3 µM)", "combination Emax": 0.733}
{"molecule": "CC(=O)c1c(C)c2cnc(Nc3ccc(N4CCNCC4)cn3)nc2n(C2CCCC2)c1=O [Palbociclib] + Cn1cnc2c(F)c(Nc3ccc(Br)cc3Cl)c(C(=O)NOCCO)cc21 [Selumetinib] (first compound max 10 µM, 7x7, partner max 10 µM)", "combination Emax": 0.441}
{"molecule": "Cc1cc2ncnn2cc1Nc1ncc2c(n1)n(C1CCOCC1)c(=O)n2C [AZD7648] + C[C@@H]1COCCN1C2=NC(=NC(=C2)C3(CC3)[S@](=N)(=O)C)C4=C5C=CNC5=NC=C4 [AZD6738] (first compound max 10 µM, 7x7, partner max 10 µM)", "combination Emax": 0.513}
{"molecule": "NC1(C(=O)N[C@@H](CCO)c2ccc(Cl)cc2)CCN(c2ncnc3[nH]ccc23)CC1 [Capivasertib] + COc1nnc2ccc(N3CCC(c4ccc(OCCN5CCN(C)C(=O)[C@H]5C)cc4)CC3)nn12 [AZD5153] (first compound max 10 µM, 7x7, partner max 1 µM)", "combination Emax": 0.666}

# map each molecule to its combination Emax
1. CC1(C)CCC(CN2CCN(c3ccc(C(=O)NS(=O)(=O)c4ccc(NCC5CCOCC5)c([N+](=O)[O-])c4)c(Oc4cnc5[nH]ccc5c4)c3)CC2)=C(c2ccc(Cl)cc2)C1 [Venetoclax] + C[C@@H]1COCCN1C2=NC(=NC(=C2)C3(CC3)[S@](=N)(=O)C)C4=C5C=CNC5=NC=C4 [AZD6738] (first compound max 1 µM, 7x7, partner max 10 µM)
2. COc1cccc(OCCCN)c1-c1cc(Nc2cnc(C#N)cn2)n[nH]1 [Prexasertib] + O=C(c1cc(Cc2n[nH]c(=O)c3ccccc23)ccc1F)N1CCN(C(=O)C2CC2)CC1 [Olaparib] (first compound max 1 µM, 7x7, partner max 10 µM)
3. CCN(CCO)CCCOc1ccc2c(Nc3cc(CC(=O)Nc4cccc(F)c4)[nH]n3)ncnc2c1 [AZD2811] + O=C(c1cc(Cc2n[nH]c(=O)c3ccccc23)ccc1F)N1CCN(C(=O)C2CC2)CC1 [Olaparib] (first compound max 1 µM, 7x7, partner max 10 µM)

Data returned:
1. 0.624
2. 0.603
3. 0.413
